Molecular target: T1, hPRLR.mFc (soluble dimeric human PRLR) (Homo sapiens, UniProt P16471)
T1 construct: dimeric (hPRLR.mFc)
T1 sequence (P16471 with tags, fused parts or gaps): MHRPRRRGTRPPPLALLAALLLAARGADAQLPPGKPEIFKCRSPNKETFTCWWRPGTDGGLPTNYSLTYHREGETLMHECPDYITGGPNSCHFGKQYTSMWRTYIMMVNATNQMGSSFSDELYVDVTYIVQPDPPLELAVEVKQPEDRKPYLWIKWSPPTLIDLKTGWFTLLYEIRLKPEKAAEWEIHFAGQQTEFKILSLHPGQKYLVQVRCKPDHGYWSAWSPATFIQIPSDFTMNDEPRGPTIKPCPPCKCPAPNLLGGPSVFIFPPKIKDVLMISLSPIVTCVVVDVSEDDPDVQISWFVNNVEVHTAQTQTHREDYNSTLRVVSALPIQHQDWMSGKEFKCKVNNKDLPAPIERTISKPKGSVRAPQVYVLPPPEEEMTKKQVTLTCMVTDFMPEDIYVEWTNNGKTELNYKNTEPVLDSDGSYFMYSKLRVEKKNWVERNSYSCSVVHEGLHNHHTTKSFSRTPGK
Test: Surface plasmon resonance (Biacore T200), mAb-capture format
Type: binding
Settings: 25° C., antibody-capture format, analyte hPRLR.mFc
Known T½ of a selection of molecules

>  <molecule>
H1H6790P: anti-PRLR antibody, human IgG1 Fc; HCVR/LCVR SEQ ID NOs 114/122 (antibody, V domains shown, human IgG1 Fc) VH: EVQLVESGGGLVQPGGSLRLSCAASGFTFSSYAMTWVRQAPGKGLEWVSAITGSVGNTYYADSVKGRFTISRDNSKNTLYLQMNSLGAEDTAEYYCAKGAGMTTNWYLDLWGRGTLVTVSS VL: DIVMTQSPDSLAVSLGARATINCKSSQSVLYSSNNQNYLTWYQQKPGQPPKLLIKWASTRESGVPDRFSGSGSGTDFTLTISSLQAEDVAVYYCQQYASSPYTFGQGTKLEIK

>  <T½ / h>
1.85

$$$$
>  <molecule>
H1H6975N: human IgG1 Fc form of H2M6975N; anti-PRLR; HCVR/LCVR SEQ ID NOs 370/378 (antibody, V domains shown, human IgG1 Fc) VH: EVHLVESGGGLVQPGGSLRLSCAASGFTFSSYEMNWVRQTPGKGLEWISHISSRSVIIYYADSVKGRFTISRDNAKNSLFLQMNSLRAEDTAVYFCAGITIFGIPEYWGQGTLVTVSS VL: EIVLTQSPATLSLSPGERATLSCRASQSVSSYFAWYQQKPGQAPRLLIYDASSRATGIPTRFSGSGSGTDFTLTISSLEPEDFAVYYCQQRSSWPITFGQGTRLEIK

>  <T½ / h>
9.797

$$$$
>  <molecule>
H1H6793P: anti-PRLR antibody, human IgG1 Fc; HCVR/LCVR SEQ ID NOs 146/154 (antibody, V domains shown, human IgG1 Fc) VH: EVQLVESGGGLVQPGGSLRLSCAASGFSFSIYAMSWFRQAPGKGLEWVSAINGRGDGTHYADSVKGRFTISRDNSKTTLYLQMSSLRAEDTAVYYCAKPVMSTNGFDIWGQGTMVTVSS VL: DIQMTQSPSTLSASVGDRVTITCRASQSISSWLAWYQLKPGKAPKLLIYKASNLESGVPSRFSGSGSGTEFTLTISSLQPDDFATYYCQQYNIYWTFGQGTKVEIK

>  <T½ / h>
2.55

$$$$
>  <molecule>
H1H6803P: anti-PRLR antibody, human IgG1 Fc; HCVR/LCVR SEQ ID NOs 226/234 (antibody, V domains shown, human IgG1 Fc) VH: EVQLVESGGGVVRPGGSLRLSCAASGFKFDDYGMTWVRHVPGKGLEWVSGINWNGGRTGYTDSVKGRFTISRDNAKNSLYLQMNSLRAEDTALYHCAGARRDAFDIWGQGTMVTVSS VL: DIQMTQSPSSLSASIGDRVTITCRASQNIIKYLNWYQQNAGKAPKLLIYTASSLQSGVPSRFSGSGSGTDFTLTISSLQPEDFATYYCQQSSSSPYTFGQGTKLEIK

>  <T½ / h>
3.07

$$$$
>  <molecule>
H1H6967N: human IgG1 Fc form of H2M6967N; anti-PRLR; HCVR/LCVR SEQ ID NOs 354/362 (antibody, V domains shown, human IgG1 Fc) VH: EVQLVESGGDLVHPGRSLRLSCAASGFPFDEYAMHWVRQVPGKGLEWVSGISWSNNNIGYADSVKGRFTISRDNAKNSLYLQMNSLRPEDTAFYYCAKSGIFDSWGQGTLVTVSS VL: EIVMTQSPATLSVSPGERATLSCRASQSVSRDLAWYQQKPGQAPRLLIHGASTRATGIPARFSGSGSGAEFTLIISSLQSEDFAVYYCQQYNNWPLTFGGGTKVEIK

>  <T½ / h>
4.322

$$$$
>  <molecule>
H1H6797P: anti-PRLR antibody, human IgG1 Fc; HCVR/LCVR SEQ ID NOs 178/186 (antibody, V domains shown, human IgG1 Fc) VH: EVQLVESGGGLVQPGGSLRLSCIVSGFTFSGSWMSWVRQLPGKGLEWVANIKEDGSDSYYVDSVEGRFTISRDNAKSSLYLQMNSLRVDDTAVYFCARARTVPLHYWGQGTLVTVSS VL: DIQMTQSPSTLSASVGDRVTITCRASQSINIWLAWYQQKPGKAPKLLIYRASYLESGVPSSFAGGGSGTEFTLTISSLQPDDFGTYYCQHYNSYPFTFGQGTKLEIK

>  <T½ / h>
1.62

$$$$
>  <molecule>
H1H6953N: human IgG1 Fc form of H1M6953N; anti-PRLR; HCVR/LCVR SEQ ID NOs 274/282 (antibody, V domains shown, human IgG1 Fc) VH: EVQLLESGGGLVQPGGTLRLSCAASGFTFSAYAMSWVRQAPGKGLEWVSSINVRAGDTYYADSVKGRFTISRDNSKNTLFLLMNSLRAEDTAAYYCAKARYSSNWGFDFWGQGTLVTVSS VL: DIVMTQSPDSLTVSLGARTTINCQSSQTILHSSNNHNYLAWYQQKPGLPPKLLIYWSSTRESGVPDRFSGSGSGTDFTLTISSLQAEDVAIYYCQQYSNTPYTFGQGTKLEIN

>  <T½ / h>
4.037

$$$$
>  <molecule>
H1H6958N2: human IgG1 Fc form of H2M6958N2; anti-PRLR, receptor blocking; HCVR/LCVR SEQ ID NOs 290/298 (antibody, V domains shown, human IgG1 Fc) VH: QVQLVESGGGVVQPGRSLRLSCGASGFTFRNYGMQWVRQGPGKGLEWVTLISFDGNDKYYADSVKGRFTISRDNSKNTLFLQMNSLRTEDTAVYYCARGGDFDYWGQGTLVTVSS VL: DIQMTQSPSSLSASVGDRVTITCRASQDIRKDLGWYQQKPGKAPKRLIYAASSLHSGVPSRFSGSGSGTEFTLTISSLQPEDFATYYCLQHNSYPMYTFGQGTKLEIK

>  <T½ / h>
5.263

$$$$
